Target or test system: T1, PSMA Fab
T1 construct: Biotinylated and captured on neutravidin coated plates in the phage ELISA; also called Anti-PSMA Fab; 006 PSMA Fab
Method notes: clonal phage ELISA on biotinylated PSMA Fab captured on neutravidin plates, anti-M13 HRP detection;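 also: crude clonal phage supernatants tested, before phage were added, wells were pretreated with PSMA antigen in blocking buffer or with blocking buffer only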
Where no end group is shown, it is not given here.
Recorded metric: Phage binding ELISA signal, Anti-PSMA Fab
Hey, just send me the number, nothing else.

- Binder: "TLSMCVPTWMCTGF [Phage-2877]"
  Numeric value: 2.38
- Binder: "IETWCVPRWMCEGF [Phage-2864]"
  Numeric value: 2.42
- Binder: "ETLRCEPMWMCMGF [Phage-2874]"
  Numeric value: 2.39
- Binder: "DDIRCKPAWMCMGF [Phage-2876]"
  Numeric value: 2.38
- Binder: "LERVCKPLWMCTGL [Phage-2871]"
  Numeric value: 2.39
- Binder: "EPIRCVPQWMCVGF [Phage-2868]"
  Numeric value: 2.4

**Query** Any idea what Phage binding ELISA signal, Anti-PSMA Fab was measured for WPQLCVPMWMCAGL [Phage-2869] ?
**Result** 2.4

**Query** And what about the binder TSPACVPSWMCVGF [Phage-2866] ?
**Result** 2.4

**Query** And what about the binder VLPMCSPPWMCIGL [Phage-2867] ?
**Result** 2.4

**Query** And what about the binder MSPLCKPVWMCAGF (cysteine pairing not given here; also: displayed on phage by fusion to pIII) [Phage-2865] ?
**Result** 2.4
